molecular target: mTOR/GbL/Raptor (mTORC1) (Homo sapiens, UniProt P42345); experiment: mTOR/GbL/Raptor (mTORC1) ELISA assay; format: biochemical; conditions: phosphorylation of 4E-BP1; 0.2 nM mTORC1, 10 μM ATP; read-out: IC50 in this assay (mTORC1 ELISA)
Here, each record is paired with measured IC50 data.

The cases that follow already have their IC50 on record.
[[record]]
molecule = "Cc1ncc(S(=O)(=O)N(C)C)c(N2CCOc3ccc(-c4cnc5nc(C)[nH]c5c4)cc3C2)n1"
meas_value = "0.25 to 1 µM"

[[record]]
molecule = "CCCc1c(C)nc(CN(C)C)nc1N1CCOc2ccc(-c3cnc4sc(N)nc4c3)cc2C1"
meas_value = "0.05 to 0.25 µM"

[[record]]
molecule = "Cc1nc(N)nc(N2CCOc3ccc(-c4cnc5[nH]cnc5c4)cc3C2)c1Cc1ccc(F)cc1"
meas_value = "≤ 0.01 µM"

[[record]]
molecule = "Cc1nc2c(-c3ccc4c(c3)CN(c3ncnc5c3CC(C)(C)CC5)CCO4)cncc2[nH]1"
meas_value = "≥ 2 µM"

[[record]]
molecule = "CCN(CC)Cc1nc2c(c(N3CCOc4ccc(-c5cnc6nc(C)[nH]c6c5)cc4C3)n1)CC(C)(C)CC2"
meas_value = "0.01 to 0.05 µM"

[[record]]
molecule = "CC1(C)CCc2ncnc(N3CCOc4ccc(-c5cnc(N)c(S(=O)(=O)CCCO)c5)cc4C3)c2C1"
meas_value = "0.01 to 0.05 µM"


IN: Which IC50 is reported for this molecule? "Cc1ncnc(N2CCOc3ccc(-c4ccc5nc(N)sc5n4)cc3C2)c1Cc1ccc(F)cc1"
OUT: 0.01 to 0.05 µM

IN: Next molecule up: "CC1(C)CCc2ncnc(N3CCOc4ccc(-c5cnc(N)c(S(=O)(=O)N6CC(F)(F)C6)c5)cc4C3)c2C1"
OUT: 0.05 to 0.25 µM
